Conditions: in THF, 323.15 K
Measured Property: solubility (mole fraction)

• COC(=O)c1cccc(C(=O)OC)n1 = 0.046

###

Settings: in methyl acetate, 323.15 K
Measured Property: solubility (mole fraction)

* COC(=O)c1cccc(C(=O)OC)n1 | 0.0635

###

Conditions: in DMSO, 313.15 K
Measured Property: solubility (mole fraction)

- COC(=O)c1cccc(C(=O)OC)n1: 0.0435

###

Details: in THF, 278.15 K
Measured Property: solubility (mole fraction)

* COC(=O)c1cccc(C(=O)OC)n1 | 0.00553

###

Conditions: in methyl acetate, 288.15 K
Measured Property: solubility (mole fraction)

- COC(=O)c1cccc(C(=O)OC)n1: 0.0118

###

Conditions: in n-pentyl acetate, 318.15 K
Measured Property: solubility (mole fraction)

- COC(=O)c1cccc(C(=O)OC)n1: 0.0189

###

Details: in ethanol, 283.15 K
Measured Property: solubility (mole fraction)

- COC(=O)c1cccc(C(=O)OC)n1: 0.00068

###

Conditions: in methanol, 318.15 K
Measured Property: solubility (mole fraction)

* COC(=O)c1cccc(C(=O)OC)n1 | 0.00974

###

Details: in n-pentyl acetate, 313.15 K
Measured Property: solubility (mole fraction)

* COC(=O)c1cccc(C(=O)OC)n1 | 0.015

###

Conditions: in ethyl acetate, 308.15 K
Measured Property: solubility (mole fraction)

• COC(=O)c1cccc(C(=O)OC)n1 = 0.019

###

Conditions: in ethanol, 298.15 K
Measured Property: solubility (mole fraction)

* COC(=O)c1cccc(C(=O)OC)n1 | 0.00215

###

Settings: in ethyl acetate, 288.15 K
Measured Property: solubility (mole fraction)

* COC(=O)c1cccc(C(=O)OC)n1 | 0.00549

###

Conditions: in ethanol, 303.15 K
Measured Property: solubility (mole fraction)

* COC(=O)c1cccc(C(=O)OC)n1 | 0.00323

###

Details: in ethanol, 323.15 K
Measured Property: solubility (mole fraction)

* COC(=O)c1cccc(C(=O)OC)n1 | 0.0101

###

Conditions: in THF, 308.15 K
Measured Property: solubility (mole fraction)

* COC(=O)c1cccc(C(=O)OC)n1 | 0.0219

###

Conditions: in isopropyl acetate, 308.15 K
Measured Property: solubility (mole fraction)

• COC(=O)c1cccc(C(=O)OC)n1 = 0.0117

###

Details: in n-butyl acetate, 298.15 K
Measured Property: solubility (mole fraction)

* COC(=O)c1cccc(C(=O)OC)n1 | 0.00671

###

Details: in isopropyl acetate, 288.15 K
Measured Property: solubility (mole fraction)

• COC(=O)c1cccc(C(=O)OC)n1 = 0.00343

###

Conditions: in isopropyl acetate, 278.15 K
Measured Property: solubility (mole fraction)

* COC(=O)c1cccc(C(=O)OC)n1 | 0.00191

###

Conditions: in n-butyl acetate, 323.15 K
Measured Property: solubility (mole fraction)

• COC(=O)c1cccc(C(=O)OC)n1 = 0.026

###

Conditions: in THF, 288.15 K
Measured Property: solubility (mole fraction)

- COC(=O)c1cccc(C(=O)OC)n1: 0.00891

###

Conditions: in ethanol, 288.15 K
Measured Property: solubility (mole fraction)

* COC(=O)c1cccc(C(=O)OC)n1 | 0.00103

###

Conditions: in DMSO, 323.15 K
Measured Property: solubility (mole fraction)

* COC(=O)c1cccc(C(=O)OC)n1 | 0.0658
